src = ChEMBL document CHEMBL5058577

system: HEK-293T; test: Multiplex assay against HEK293T; format: toxicity, cell-based; conditions: human, 12 h, 1 µM, compound concentration 1 uM, replicate 2
parameterMeasured: Population Mitochondria Different-Phenotype (%)
Express the reported value numerically, then name its unit.

Known Population Mitochondria Different-Phenotype (%) results, listed for orientation:
1) CC(/C=C1\SC(=S)N(CCCC(=O)Nc2ccc(C(=O)O)c(O)c2)C1=O)=C\c1ccccc1; 62%
2) COc1ccccc1N1CCN(C[C@@H](C(=O)NC(C)(C)C)c2ccccc2)CC1.Cl.Cl; 77%
3) CC(C)COc1ccc(CNC(=O)N(Cc2ccc(F)cc2)C2CCN(C)CC2)cc1 [PIMAVANSERIN]; 68%
4) Cc1noc(-c2ccc(-c3ccc(CC(=O)O)cc3)cc2)c1NC(=O)O[C@H](C)c1ccccc1Cl; 69%
5) CCCOc1ccc2[nH]cc(C3=CCNCC3)c2n1.Cl; 52%
6) Br.CS(=O)(=O)Nc1c(O)ccc2c1CCCC2C1=NCCN1 (stereo not drawn); 52%

Dear colleague, could you please provide Population Mitochondria Different-Phenotype (%) for the molecules listed below?
1. Cc1onc(-c2ccccc2Cl)c1C(=O)N(C)c1ccc(Cl)cc1
2. CC[C@@H](C)Nc1nc(C)nc2c(-c3ccc(OC)nc3C)c(C)nn12 [PEXACERFONT]
3. CCc1cc2cc(NS(=O)(=O)c3ccc(C#N)cc3)ccc2n(CC)c1=O
4. Cl.NCCc1ccc(O)c(O)c1 [DOPAMINE HYDROCHLORIDE]

Marked response:
["59%", "61%", "64%", "58%"]

Dear colleague, could you please provide Population Mitochondria Different-Phenotype (%) for the molecules listed below?
1. O=C(NCCN1CCC(n2c(=O)[nH]c3cc(Cl)ccc32)CC1)c1ccc(F)cc1 [HALOPEMIDE]
2. Cc1sc2c(c1C)C(c1ccc(Cl)cc1)=N[C@@H](CC(=O)NCCCCCCCCNC(=O)COc1cccc3c1C(=O)N(C1CCC(=O)NC1=O)C3=O)c1nnc(C)n1-2 (stereo partly drawn)
3. CN(C)C(=O)Cn1cc(-c2ccc(-c3cncc4ccccc34)cc2)cn1
4. Cl.N=C(N)NC(=O)Cc1c(Cl)cccc1Cl [GUANFACINE HYDROCHLORIDE]
5. N#Cc1cc(F)cc(-c2nc(-c3ccc(F)cn3)no2)c1
6. COC[C@@H](c1ccc(C(F)(F)F)cc1)N1CCN(C2(C)CCN(C(=O)c3c(C)ncnc3C)CC2)C[C@@H]1C.O=C(O)/C=C\C(=O)O [VICRIVIROC MALEATE]
7. C[C@H](N)COC(=O)[C@@H](CCCCN)NC(=O)Cc1c(-c2ccc3ccccc3c2)[nH]c2c1ccc1ccccc12

Marked response:
1: 62%; 2: 91%; 3: 58%; 4: 67%; 5: 55%; 6: 51%; 7: 65%

Dear colleague, could you please provide Population Mitochondria Different-Phenotype (%) for the molecules listed below?
1. O=C1[C@H](Cc2ccc(O)cc2)N2C(=O)CCN(C(=O)NCc3ccccc3)[C@H]2CN1Cc1cccc2ccccc12
2. CCCCCC(O)/C=C/[C@H]1C(=O)CC(O)C1C/C=C\CCCC(=O)O (stereo partly drawn)
3. NCCc1cn(S(=O)(=O)c2c(Cl)nc3sccn23)c2ccccc12.O=C(O)C(=O)O
4. CC(=O)Nc1cccc2c1c(Sc1ccc(Cl)cc1)c(C)n2CC(=O)O [AZD1981]
5. CC(C)c1noc(N2CCC(COc3ccc(-c4ccc(S(C)(=O)=O)cc4)nc3)CC2)n1 [GSK-1292263]
6. CCCCC1=NC2(CCCC2)C(=O)N1Cc1ccc(-c2ccccc2-c2nnn[nH]2)cc1 [IRBESARTAN]

Marked response:
1. 68%
2. 56%
3. 66%
4. 57%
5. 53%
6. 63%

Dear colleague, could you please provide Population Mitochondria Different-Phenotype (%) for the molecules listed below?
1. CC(C)(C)c1cc(NC(=O)Nc2ccc(-c3cn4c(n3)sc3cc(OCCN5CCOCC5)ccc34)cc2)no1 [QUIZARTINIB]
2. Cc1c(CC(=O)O)c2cccnc2n1Cc1ccc(S(C)(=O)=O)cc1C(F)(F)F [FEVIPIPRANT]
3. Cc1cnc(-c2cc(N3CCN(C(=O)CCS(C)(=O)=O)CC3)ncc2Cl)c(C)c1
4. CN[C@@H](C)C(=O)N[C@H](C(=O)N1CCC[C@H]1C(=O)Nc1snnc1-c1ccccc1)C1CCCCC1 [GDC-0152]
5. O=C(CCCc1ccccc1)Nc1nc2ccccc2c(=O)s1

Marked response:
1. 58%
2. 52%
3. 69%
4. 62%
5. 63%
